Molecular target: Dual specificity mitogen-activated protein kinase kinase 1 (Homo sapiens, UniProt Q02750)
Sequence (Q02750 whole entry): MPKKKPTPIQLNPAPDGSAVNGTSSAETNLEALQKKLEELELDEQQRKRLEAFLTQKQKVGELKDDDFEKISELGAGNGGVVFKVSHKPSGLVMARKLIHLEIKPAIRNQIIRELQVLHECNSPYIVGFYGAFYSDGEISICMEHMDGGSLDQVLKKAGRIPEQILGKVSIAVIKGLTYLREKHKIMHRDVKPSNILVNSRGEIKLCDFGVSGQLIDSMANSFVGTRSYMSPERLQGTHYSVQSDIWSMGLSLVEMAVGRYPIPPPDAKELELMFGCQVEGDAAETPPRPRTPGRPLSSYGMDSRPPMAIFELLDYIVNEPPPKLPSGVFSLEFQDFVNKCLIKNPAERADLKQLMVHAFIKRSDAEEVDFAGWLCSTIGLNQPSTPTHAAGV
Experiment: Inhibition of recombinant human MEK1 by radiometric assay in presence of [gamma-33P]-ATP
RECORDED_METRIC: pIC50
Keep in mind that pIC50 stands for -log10 of concentration in molar terms.

Entry `CC(C)n1nc(-c2cc(C3CC3)on2)c2c(N)ncnc21` : reported pIC50 = ?
6.85

====

Target: UniProt:P35968
Sequence (P35968 whole entry): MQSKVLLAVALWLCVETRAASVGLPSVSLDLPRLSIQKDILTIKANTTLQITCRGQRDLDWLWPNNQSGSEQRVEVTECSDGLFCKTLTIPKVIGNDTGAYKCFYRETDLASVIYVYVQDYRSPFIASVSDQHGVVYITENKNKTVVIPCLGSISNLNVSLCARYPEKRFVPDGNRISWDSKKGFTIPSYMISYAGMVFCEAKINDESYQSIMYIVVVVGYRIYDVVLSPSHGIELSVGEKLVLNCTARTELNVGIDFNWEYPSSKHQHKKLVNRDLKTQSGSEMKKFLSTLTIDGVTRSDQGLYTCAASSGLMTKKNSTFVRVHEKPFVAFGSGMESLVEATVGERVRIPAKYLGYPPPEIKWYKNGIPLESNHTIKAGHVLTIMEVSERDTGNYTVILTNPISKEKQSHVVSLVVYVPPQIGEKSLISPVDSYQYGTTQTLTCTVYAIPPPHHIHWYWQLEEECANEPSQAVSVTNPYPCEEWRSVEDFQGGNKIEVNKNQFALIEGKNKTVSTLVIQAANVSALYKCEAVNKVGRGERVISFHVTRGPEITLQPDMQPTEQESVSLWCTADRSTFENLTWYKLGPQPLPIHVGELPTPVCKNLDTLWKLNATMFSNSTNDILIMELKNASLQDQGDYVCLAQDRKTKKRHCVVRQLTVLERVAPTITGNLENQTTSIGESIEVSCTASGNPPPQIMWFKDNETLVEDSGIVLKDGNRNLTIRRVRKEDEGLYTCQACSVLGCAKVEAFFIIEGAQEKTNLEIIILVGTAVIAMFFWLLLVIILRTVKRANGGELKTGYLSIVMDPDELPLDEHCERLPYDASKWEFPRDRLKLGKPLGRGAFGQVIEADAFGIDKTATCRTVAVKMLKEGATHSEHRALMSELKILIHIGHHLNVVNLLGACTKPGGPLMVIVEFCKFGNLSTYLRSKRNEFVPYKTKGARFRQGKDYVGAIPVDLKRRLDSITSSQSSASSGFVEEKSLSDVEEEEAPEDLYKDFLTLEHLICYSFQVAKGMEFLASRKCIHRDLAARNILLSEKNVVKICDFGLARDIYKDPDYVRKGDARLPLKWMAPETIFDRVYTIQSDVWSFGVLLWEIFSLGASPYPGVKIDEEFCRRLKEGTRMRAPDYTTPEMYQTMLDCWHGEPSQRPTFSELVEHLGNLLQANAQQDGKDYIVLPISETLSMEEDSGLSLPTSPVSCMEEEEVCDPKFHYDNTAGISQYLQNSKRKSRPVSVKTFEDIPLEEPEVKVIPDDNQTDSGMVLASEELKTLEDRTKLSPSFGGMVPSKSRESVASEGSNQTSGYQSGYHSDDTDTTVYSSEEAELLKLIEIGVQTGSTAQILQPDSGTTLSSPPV
Experiment: Inhibition of recombinant human VGFR2 by radiometric assay in presence of [gamma-33P]-ATP
RECORDED_METRIC: pIC50
Keep it numeric: pIC50 is minus log10 of the concentration in mol/L.

Query pIC50 on UniProt:P35968 for `CC(C)n1nc(-c2cc(C3CC3)on2)c2c(N)ncnc21`
7.02

====

I'd appreciate it if you could supply pIC50 values for the items below.
Molecular target: Proto-oncogene tyrosine-protein kinase receptor Ret (Homo sapiens, UniProt P07949, V804M)
Experiment: Inhibition of human Ret V804M mutant by radiometric assay in presence of [gamma-33P]-ATP
Please treat pIC50 as minus the base-10 logarithm of the molar concentration.

For Proto-oncogene tyrosine-protein kinase receptor Ret (Homo sapiens, UniProt P07949, V804M), provide pIC50 of `Nc1ncnc2c1c(-c1cc(C3CC3)on1)nn2C1CCCCC1` please.
7.85

Repeat for the following molecule: `CC(C)n1nc(-c2cc(C3CCCC3)on2)c2c(N)ncnc21`
5.80

How about this molecule: `CC(C)(O)Cn1nc(-c2cc(C3CC3)on2)c2c(N)ncnc21`
6.66

What do we get for `CC(C)n1nc(-c2ccon2)c2c(N)ncnc21` ?
6.04

`CC(C)n1nc(/C=N/O)c2c(N)ncnc21` ?
5.43

Now consider CC(C)n1nc(C2=NOC(c3ccccc3)C2)c2c(N)ncnc21 (stereo not drawn) and answer again.
5.25

Same question for `Cn1nc(-c2cc(C3CC3)on2)c2c(N)ncnc21` please.
6.74

Quick one: `CC(C)n1nc(-c2cc(-c3ccccn3)on2)c2c(N)ncnc21`
5.23

Next: `CC(C)n1nc(-c2cc(C(C)(C)C)on2)c2c(N)ncnc21`
5.68

Do the same for `CC(C)n1nc(C#Cc2ccccc2)c2c(N)ncnc21` please
5.58

Can you check `CCCCCCCn1nc(-c2cc(C3CC3)on2)c2c(N)ncnc21` next?
6.03

What do we get for `CC(C)n1nc(-c2cc(Cc3ccccc3)on2)c2c(N)ncnc21` ?
5.70

Same again, this time with `CCc1cc(-c2nn(C(C)C)c3ncnc(N)c23)no1`
6.27

What about `CC(C)n1nc(-c2cc(C3CC3)on2)c2c(N)ncnc21` ?
8.40

Record: `Nc1ncnc2c1c(-c1cc(C3CC3)on1)nn2Cc1ccccc1`
6.25

Note, next up: `Nc1ncnc2c1c(-c1cc(C3CC3)on1)nn2C1CCOCC1`
7.39

Entry to check: `CC(C)c1cc(-c2nn(C(C)C)c3ncnc(N)c23)no1`
6.45

What do you have for `Nc1ncnc2[nH]nc(-c3cc(C4CC4)on3)c12` ?
6.45

====

Target: Vascular endothelial growth factor receptor 3 (Homo sapiens)
Sequence (P35916 whole entry): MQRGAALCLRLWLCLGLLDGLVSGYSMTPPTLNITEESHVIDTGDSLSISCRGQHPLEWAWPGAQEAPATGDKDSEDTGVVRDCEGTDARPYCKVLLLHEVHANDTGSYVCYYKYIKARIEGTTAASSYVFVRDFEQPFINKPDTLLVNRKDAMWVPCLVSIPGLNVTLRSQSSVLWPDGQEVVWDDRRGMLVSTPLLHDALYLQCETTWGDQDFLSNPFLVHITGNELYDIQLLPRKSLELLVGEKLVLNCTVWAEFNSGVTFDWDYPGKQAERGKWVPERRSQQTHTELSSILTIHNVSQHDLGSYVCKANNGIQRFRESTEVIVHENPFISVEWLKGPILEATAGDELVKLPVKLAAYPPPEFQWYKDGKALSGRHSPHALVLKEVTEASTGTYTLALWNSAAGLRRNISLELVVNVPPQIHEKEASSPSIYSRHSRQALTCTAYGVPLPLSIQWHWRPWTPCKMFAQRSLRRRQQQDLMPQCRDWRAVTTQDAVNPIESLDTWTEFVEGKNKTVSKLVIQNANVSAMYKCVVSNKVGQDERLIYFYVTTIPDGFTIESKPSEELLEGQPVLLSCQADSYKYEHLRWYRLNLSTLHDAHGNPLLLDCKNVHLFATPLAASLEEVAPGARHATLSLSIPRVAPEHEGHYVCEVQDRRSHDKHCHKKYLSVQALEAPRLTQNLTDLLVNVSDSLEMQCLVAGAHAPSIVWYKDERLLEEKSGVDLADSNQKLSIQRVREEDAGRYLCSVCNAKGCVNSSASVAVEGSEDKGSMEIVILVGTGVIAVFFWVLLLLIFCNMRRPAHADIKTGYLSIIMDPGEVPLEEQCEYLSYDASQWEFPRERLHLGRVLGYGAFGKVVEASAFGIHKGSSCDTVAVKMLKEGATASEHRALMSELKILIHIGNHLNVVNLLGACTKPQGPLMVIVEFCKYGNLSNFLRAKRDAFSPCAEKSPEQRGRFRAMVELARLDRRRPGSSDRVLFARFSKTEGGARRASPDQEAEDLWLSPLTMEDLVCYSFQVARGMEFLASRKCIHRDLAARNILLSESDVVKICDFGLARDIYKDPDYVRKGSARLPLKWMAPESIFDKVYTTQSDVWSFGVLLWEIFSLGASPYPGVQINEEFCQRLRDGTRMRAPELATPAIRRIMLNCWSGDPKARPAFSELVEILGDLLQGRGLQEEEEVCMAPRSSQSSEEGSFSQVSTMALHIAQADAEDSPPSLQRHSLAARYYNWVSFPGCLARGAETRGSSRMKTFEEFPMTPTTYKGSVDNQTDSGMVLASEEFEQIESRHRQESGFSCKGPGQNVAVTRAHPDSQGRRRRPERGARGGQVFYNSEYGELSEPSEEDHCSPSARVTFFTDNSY
Test: Inhibition of recombinant human FLT4 by radiometric assay in presence of [gamma-33P]-ATP
RECORDED_METRIC: IC50
Could you give the number and then its unit, please?

For the compound shown here, `CC(C)n1nc(-c2cc(C3CC3)on2)c2c(N)ncnc21` , give the reported IC50.
72 nM

====

Measurement record for Proto-oncogene tyrosine-protein kinase receptor Ret (Homo sapiens); quantity recorded: IC50.
# answer = value followed by unit

So what's the measured IC50 for this one? `Nc1ncnc2c1c(-c1cc(C3CC3)on1)nn2C1CCOCC1`
0.005 µM

Same question, `CC(C)(O)Cn1nc(-c2cc(C3CC3)on2)c2c(N)ncnc21` this time
0.068 µM

Repeat for the following compound: `Cn1nc(-c2cc(C3CC3)on2)c2c(N)ncnc21`
0.027 µM

How about this compound: `CC(C)n1nc(-c2cc(C3CCCC3)on2)c2c(N)ncnc21`
0.241 µM

Also check `CC(C)n1nc(-c2cc(C3CC3)on2)c2c(N)ncnc21`
0.0014 µM

Continue with `CC(C)n1nc(/C=N/OCc2ccccc2)c2c(N)ncnc21`
8.33 µM

Same thing, different compound: `CC(C)n1nc(-c2cc(Cc3ccccc3)on2)c2c(N)ncnc21`
0.241 µM

Request: `Nc1ncnc2c1c(-c1cc(C3CC3)on1)nn2C1CCCCC1`
0.002 µM

What about `CC(C)n1nc(-c2cc(-c3ccccc3)on2)c2c(N)ncnc21` ?
0.19 µM

Then this compound: `CCc1cc(-c2nn(C(C)C)c3ncnc(N)c23)no1`
0.041 µM

Then this compound: `CC(C)n1nc(-c2cc(-c3ccc(F)cc3)on2)c2c(N)ncnc21`
0.15 µM

====

I'd be grateful if you could share measured GI50 for these entries.
Test system: Proto-oncogene tyrosine-protein kinase receptor Ret (Homo sapiens), P07949 [V804M]
Conditions: BaF3
Quick note: give the figure in µM, leave out the unit.

Give its GI50 value. Item: `CCc1cc(-c2nn(C(C)C)c3ncnc(N)c23)no1`
5.77

Try this compound next: `Nc1ncnc2c1c(-c1cc(C3CC3)on1)nn2C1CCOCC1`
1.93

What about this compound? `CC(C)n1nc(-c2ccon2)c2c(N)ncnc21`
8.94

Similarly, `CC(C)n1nc(-c2cc(C3CC3)on2)c2c(N)ncnc21` ?
0.32

Try `CC(C)c1cc(-c2nn(C(C)C)c3ncnc(N)c23)no1` next.
5.9

`CC(C)n1nc(-c2cc(C(C)(C)C)on2)c2c(N)ncnc21` , same question.
7.31

Try this compound too: `Cn1nc(-c2cc(C3CC3)on2)c2c(N)ncnc21`
5.56

====

Test: Cytotoxicity against human Nthy-ori 3-1 cells after 10 days by MTT assay
Type: cell-based
So I've got a bunch of molecules here, and I need their GI50 at 240 h values.
Provide the reading as a plain figure in µM.

Which GI50 at 240 h reading was recorded for the molecule `CC(C)n1nc(-c2cc(Cc3ccccc3)on2)c2c(N)ncnc21` ?
21.5

Record: `CC(C)n1nc(-c2cc(C(C)(C)C)on2)c2c(N)ncnc21`
24.7

And then `CC(C)c1cc(-c2nn(C(C)C)c3ncnc(N)c23)no1` , what is it?
23.7

Again, but for `Cn1nc(-c2cc(C3CC3)on2)c2c(N)ncnc21`
28.7

Again, but for `CCc1cc(-c2nn(C(C)C)c3ncnc(N)c23)no1`
28.6

And then `CC(C)n1nc(C#Cc2ccccc2)c2c(N)ncnc21` , what is it?
3.58

Would you kindly repeat that for `CC(C)n1nc(-c2cc(C3CCCCC3)on2)c2c(N)ncnc21` ?
4.11

Same thing, different molecule: `CC(C)n1nc(-c2cc(C3CCCC3)on2)c2c(N)ncnc21`
11.5

====

Molecular target: Proto-oncogene tyrosine-protein kinase receptor Ret (Homo sapiens, UniProt P07949)
Sequence (P07949 whole entry): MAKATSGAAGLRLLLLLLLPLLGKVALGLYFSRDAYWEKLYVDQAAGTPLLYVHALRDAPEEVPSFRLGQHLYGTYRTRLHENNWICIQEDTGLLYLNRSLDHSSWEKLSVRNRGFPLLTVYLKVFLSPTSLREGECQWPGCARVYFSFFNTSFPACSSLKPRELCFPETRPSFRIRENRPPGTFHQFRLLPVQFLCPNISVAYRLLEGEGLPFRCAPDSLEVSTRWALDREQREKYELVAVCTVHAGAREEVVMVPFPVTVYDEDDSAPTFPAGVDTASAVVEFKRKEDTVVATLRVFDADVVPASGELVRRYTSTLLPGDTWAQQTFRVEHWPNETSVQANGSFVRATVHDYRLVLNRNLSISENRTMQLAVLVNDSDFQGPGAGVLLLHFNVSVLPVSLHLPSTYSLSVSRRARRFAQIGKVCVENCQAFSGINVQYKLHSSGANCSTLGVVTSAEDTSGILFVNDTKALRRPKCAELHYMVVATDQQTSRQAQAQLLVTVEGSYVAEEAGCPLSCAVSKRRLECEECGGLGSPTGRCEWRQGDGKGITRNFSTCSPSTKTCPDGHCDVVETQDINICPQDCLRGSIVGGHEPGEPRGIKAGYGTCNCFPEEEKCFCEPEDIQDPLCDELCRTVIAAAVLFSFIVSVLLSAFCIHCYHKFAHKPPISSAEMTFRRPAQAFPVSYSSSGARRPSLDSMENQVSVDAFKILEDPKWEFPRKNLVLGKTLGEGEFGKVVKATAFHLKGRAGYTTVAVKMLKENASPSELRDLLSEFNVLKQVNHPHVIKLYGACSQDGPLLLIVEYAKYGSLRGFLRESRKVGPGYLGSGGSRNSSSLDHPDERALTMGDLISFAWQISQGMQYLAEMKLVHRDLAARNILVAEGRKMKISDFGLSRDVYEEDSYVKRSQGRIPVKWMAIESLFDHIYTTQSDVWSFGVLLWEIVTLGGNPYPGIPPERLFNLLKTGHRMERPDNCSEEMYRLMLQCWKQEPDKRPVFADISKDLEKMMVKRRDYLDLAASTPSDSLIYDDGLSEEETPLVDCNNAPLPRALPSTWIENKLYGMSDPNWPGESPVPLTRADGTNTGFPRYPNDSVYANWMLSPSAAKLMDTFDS
Conditions: BaF3
Description: Inhibition of wild type TEL-fused RET (unknown origin) expressed in mouse BA/F3 cells assessed as cell growth inhibition after 48 hrs by MTT assay
RECORDED_METRIC: GI50 (µM)
I only need the number, in µM, no unit after it.

Quick one: GI50 of `CC(C)n1nc(-c2cc(C3CCCCC3)on2)c2c(N)ncnc21` ?
9.5

Try this compound too: `CC(C)n1nc(-c2cc(C(C)(C)C)on2)c2c(N)ncnc21`
6.12

Okay, and `CC(C)n1nc(-c2cc(-c3ccccc3)on2)c2c(N)ncnc21` ?
3.46

Try `CC(C)n1nc(-c2cc(C3CCCC3)on2)c2c(N)ncnc21` next.
7.12

====

Test system: Proto-oncogene tyrosine-protein kinase receptor Ret (Homo sapiens), P07949 [C634W]
Sequence (P07949 whole entry C634W): as the sequence (P07949 whole entry) above, with C634W counted along it
Settings: TT
Description: Inhibition of RET C634W mutant in human TT cells assessed as cell growth inhibition after 10 days by MTT assay
RECORDED_METRIC: GI50 (µM)
Number in µM, nothing else.

Record lookup: for Proto-oncogene tyrosine-protein kinase receptor Ret (Homo sapiens), P07949 [C634W], what GI50 belongs to `CC(C)n1nc(/C=N/OCc2ccccc2)c2c(N)ncnc21` ?
9.27

Then what about the compound `CC(C)n1nc(C#Cc2ccccc2)c2c(N)ncnc21` ?
2.54

Quick one: `Cn1nc(-c2cc(C3CC3)on2)c2c(N)ncnc21`
3.51

Next compound: `CC(C)c1cc(-c2nn(C(C)C)c3ncnc(N)c23)no1`
5.13

How about `CCc1cc(-c2nn(C(C)C)c3ncnc(N)c23)no1` ?
2.61

Quick one: `CC(C)n1nc(-c2cc(-c3ccccn3)on2)c2c(N)ncnc21`
9.26

// next record `CC(C)n1nc(-c2ccon2)c2c(N)ncnc21`
7.92

Okay, and `Nc1ncnc2c1c(-c1cc(C3CC3)on1)nn2C1CCCCC1` ?
0.29

====

Experiment: Cytotoxicity against human Nthy-ori 3-1 cells after 10 days by MTT assay
Format: cell-based
Could you mark each record satisfied if its GI50 at 240 h falls strictly under 10 µM, and not satisfied if it equals or exceeds it?

Find out if reported GI50 at 240 h for `CC(C)n1nc(-c2cc(-c3ccccn3)on2)c2c(N)ncnc21` is less than 10 µM
satisfied

// next record `CC(C)n1nc(/C=N/O)c2c(N)ncnc21`
not satisfied

Entry `Nc1ncnc2c1c(-c1cc(C3CC3)on1)nn2C1CCCCC1` please
not satisfied

Further, for `Nc1ncnc2[nH]nc(-c3cc(C4CC4)on3)c12` ?
satisfied

Check COc1cc2nccc(Oc3ccc(NC(=O)C4(C(=O)Nc5ccc(F)cc5)CC4)cc3)c2cc1OC [CABOZANTINIB] too.
satisfied

This collection of values is drawn from ChEMBL document CHEMBL3751668.
